Entry source: ChEMBL document CHEMBL1127102

test system: Mus musculus; experiment: Tested in vivo for anticonvulsant activity using MES, MMS and IS relative potency compared to GYKI 52466; type: functional
Answer each item with its documented Relative potency.
I'd appreciate a reply containing only the number, no unit.

Please report the recorded Relative potency for CC1Cc2cc3c(cc2C(c2ccc(N)cc2)=NN1C(=O)Nc1ccccc1)OCO3 (stereo not drawn) .
0.13

Please report the recorded Relative potency for CCC(=O)N1N=C(c2ccc(N)cc2)c2cc3c(cc2CC1C)OCO3 (stereo not drawn) .
2.55

Please report the recorded Relative potency for CC1Cc2cc3c(cc2C(c2ccc(N)cc2)=NN1C(=O)c1ccccc1)OCO3 (stereo not drawn) .
0

Please report the recorded Relative potency for CC1Cc2cc3c(cc2C(c2ccc(N)cc2)=NN1C(=O)CN)OCO3 (stereo not drawn) .
0

Please report the recorded Relative potency for CCCCNC(=O)N1N=C(c2ccc(N)cc2)c2cc3c(cc2CC1C)OCO3 (stereo not drawn) .
0.35

Please report the recorded Relative potency for CC1Cc2cc3c(cc2C(c2ccc(N)cc2)=NN1C(=O)C1CC1)OCO3 (stereo not drawn) .
1.66

Please report the recorded Relative potency for CC(N)C(=O)N1N=C(c2ccc(N)cc2)c2cc3c(cc2CC1C)OCO3 (stereo not drawn) .
0.08

Please report the recorded Relative potency for CC1Cc2cc3c(cc2C(c2ccc(N)cc2)=NN1C(=O)C(F)(F)F)OCO3 (stereo not drawn) .
0

Please report the recorded Relative potency for CC1Cc2cc3c(cc2C(c2ccc(N)cc2)=NN1C(=O)Cc1ccccc1)OCO3 (stereo not drawn) .
0

Please report the recorded Relative potency for CC1Cc2cc3c(cc2C(c2ccc(N)cc2)=NN1C(=O)C(C)(C)C)OCO3 (stereo not drawn) .
0

Please report the recorded Relative potency for CCCCC(=O)N1N=C(c2ccc(N)cc2)c2cc3c(cc2CC1C)OCO3 (stereo not drawn) .
0

Please report the recorded Relative potency for CNC(=O)N1N=C(c2ccc(N)cc2)c2cc3c(cc2CC1C)OCO3 (stereo not drawn) .
4.39

Please report the recorded Relative potency for CNCC(=O)N1N=C(c2ccc(N)cc2)c2cc3c(cc2CC1C)OCO3 (stereo not drawn) .
0

Please report the recorded Relative potency for CC1Cc2cc3c(cc2C(c2ccc(N)cc2)=NN1C=O)OCO3 (stereo not drawn) .
1.72

Please report the recorded Relative potency for COCC(=O)N1N=C(c2ccc(N)cc2)c2cc3c(cc2CC1C)OCO3 (stereo not drawn) .
1.02

Please report the recorded Relative potency for CC(=O)N1N=C(c2ccc(N)cc2)c2cc3c(cc2C[C@H]1C)OCO3 .
2.74

Please report the recorded Relative potency for CC1Cc2cc3c(cc2C(c2ccc(N)cc2)=NN1C(=O)CN(C)C)OCO3 (stereo not drawn) .
0

Please report the recorded Relative potency for CC1Cc2cc3c(cc2C(c2ccc(N)cc2)=NN1C(=O)CC#N)OCO3 (stereo not drawn) .
0.21
